target: T1, human GLP-1 receptor (human, UniProt P43220 24-463); assay: SPA, [125I]-GLP-1 displacement, hGLP-1R membranes
T1 construct: whole, on cells; Used as crude membranes of stably transfected HEK293 cells; also called hGLP1R; hGLP-1R
Value Kind: log10 of Ki (log10 of the value in nM)
Quick note: numbers are log10 of Ki, with nM as the unit.

The examples below pair each entry with its known result.
Complete the entry with log10 of Ki for YXEGTXTSDYSIXLDEKAQXEFIHYLIEGGPSSGAPPPS (Aib2; αMeF(2F)6; αMeL13; K17((2-[2-(2-Amino-ethoxy)-ethoxy]-acetyl)2-(γ-Glu)-CO-(CH2)18-CO2H); Aib20; C-terminal NH2) [Example 153]
1.35

Complete the entry with log10 of Ki for YXEGTXTSDYSIXLDKKAQXHFIEYLIEGGPSSGAPPPS (Aib2; αMeF6; αMeL13; K17((2-[2-(2-Amino-ethoxy)-ethoxy]-acetyl)2-(γ-Glu)-CO-(CH2)18-CO2H); Aib20; C-terminal NH2) [Example 142]
0.03

Now for another entry.
Complete the entry with log10 of Ki for YXEGTXTSDESILLDKKAQXAFIEYLIEGGPSSGAPPPS (Aib2; αMeF6; K17((2-[2-(2-Amino-ethoxy)-ethoxy]-acetyl)2-(γ-Glu)-CO-(CH2)18-CO2H); Aib20; C-terminal NH2) [Example 130]
0.56

Data origin: patent US20200024322A1
